experiment: ABTS assay (TEAC); conditions: mean ± SD
Where a SMILES comes first, the peptide text is derived from it.
Provide the reported Antioxidant Activity TEAC of each item.
Respond numerically; units are µmol TE/µmol peptide and should not be typed.

Challenge: Using the record for CC(C)C[C@H](NC(=O)[C@H](Cc1ccccc1)NC(=O)CNC(=O)[C@@H](N)Cc1ccc(O)cc1)C(=O)O , state its measured Antioxidant Activity TEAC.
Response given: 2.12

Challenge: Using the record for CC(C)C[C@H](NC(=O)[C@H](Cc1ccc(O)cc1)NC(=O)[C@@H](N)CCCNC(=N)N)C(=O)NCC(=O)O [RYLG] (H-RYLG-OH; N-terminus and C-terminus assumed) , state its measured Antioxidant Activity TEAC.
Response given: 2.91

Challenge: Using the record for C[C@@H](O)[C@H](NC(=O)[C@H](Cc1c[nH]c2ccccc12)NC(=O)[C@@H]1CCCN1)C(=O)O [PWT] (H-Pro-Trp-Thr-OH; N-terminus and C-terminus assumed) , state its measured Antioxidant Activity TEAC.
Response given: 0.73

Challenge: Using the record for CC(C)C[C@H](NC(=O)[C@@H](N)Cc1ccc(O)cc1)C(=O)NCC(=O)O [YLG] (H-Tyr-Leu-Gly-OH; N-terminus and C-terminus assumed) , state its measured Antioxidant Activity TEAC.
Response given: 1.40

Challenge: Using the record for CC(C)C[C@H](NC(=O)[C@H](CC(C)C)NC(=O)[C@@H](N)Cc1ccc(O)cc1)C(=O)O [YLL] (H-Tyr-Leu-Leu-OH; N-terminus and C-terminus assumed) , state its measured Antioxidant Activity TEAC.
Response given: 2.55

Challenge: Using the record for CC(C)C[C@H](NC(=O)[C@H](Cc1ccc(O)cc1)NC(=O)[C@@H](N)CCCNC(=N)N)C(=O)O [RYL] (H-Arg-Tyr-Leu-OH; N-terminus and C-terminus assumed) , state its measured Antioxidant Activity TEAC.
Response given: 1.90

Challenge: Using the record for CC(C)C[C@H](N)C(=O)NCC(=O)N[C@@H](Cc1ccc(O)cc1)C(=O)O [LGY] (H-Leu-Gly-Tyr-OH; N-terminus and C-terminus assumed) , state its measured Antioxidant Activity TEAC.
Response given: 1.54

Challenge: Using the record for CC(C)C[C@H](NC(=O)[C@@H](N)Cc1ccc(O)cc1)C(=O)NCC(=O)N[C@@H](Cc1ccc(O)cc1)C(=O)O [YLGY] (H-YLGY-OH; N-terminus and C-terminus assumed) , state its measured Antioxidant Activity TEAC.
Response given: 2.14

Challenge: Using the record for CC(C)C[C@H](NC(=O)CNC(=O)[C@@H](N)Cc1ccc(O)cc1)C(=O)N[C@@H](Cc1ccccc1)C(=O)O [YGLF] (H-YGLF-OH; N-terminus and C-terminus assumed) , state its measured Antioxidant Activity TEAC.
Response given: 2.08

====

Target: angiotensin-converting enzyme (ACE) (Oryctolagus cuniculus, UniProt P12822)
Sequence (P12822 34-1310): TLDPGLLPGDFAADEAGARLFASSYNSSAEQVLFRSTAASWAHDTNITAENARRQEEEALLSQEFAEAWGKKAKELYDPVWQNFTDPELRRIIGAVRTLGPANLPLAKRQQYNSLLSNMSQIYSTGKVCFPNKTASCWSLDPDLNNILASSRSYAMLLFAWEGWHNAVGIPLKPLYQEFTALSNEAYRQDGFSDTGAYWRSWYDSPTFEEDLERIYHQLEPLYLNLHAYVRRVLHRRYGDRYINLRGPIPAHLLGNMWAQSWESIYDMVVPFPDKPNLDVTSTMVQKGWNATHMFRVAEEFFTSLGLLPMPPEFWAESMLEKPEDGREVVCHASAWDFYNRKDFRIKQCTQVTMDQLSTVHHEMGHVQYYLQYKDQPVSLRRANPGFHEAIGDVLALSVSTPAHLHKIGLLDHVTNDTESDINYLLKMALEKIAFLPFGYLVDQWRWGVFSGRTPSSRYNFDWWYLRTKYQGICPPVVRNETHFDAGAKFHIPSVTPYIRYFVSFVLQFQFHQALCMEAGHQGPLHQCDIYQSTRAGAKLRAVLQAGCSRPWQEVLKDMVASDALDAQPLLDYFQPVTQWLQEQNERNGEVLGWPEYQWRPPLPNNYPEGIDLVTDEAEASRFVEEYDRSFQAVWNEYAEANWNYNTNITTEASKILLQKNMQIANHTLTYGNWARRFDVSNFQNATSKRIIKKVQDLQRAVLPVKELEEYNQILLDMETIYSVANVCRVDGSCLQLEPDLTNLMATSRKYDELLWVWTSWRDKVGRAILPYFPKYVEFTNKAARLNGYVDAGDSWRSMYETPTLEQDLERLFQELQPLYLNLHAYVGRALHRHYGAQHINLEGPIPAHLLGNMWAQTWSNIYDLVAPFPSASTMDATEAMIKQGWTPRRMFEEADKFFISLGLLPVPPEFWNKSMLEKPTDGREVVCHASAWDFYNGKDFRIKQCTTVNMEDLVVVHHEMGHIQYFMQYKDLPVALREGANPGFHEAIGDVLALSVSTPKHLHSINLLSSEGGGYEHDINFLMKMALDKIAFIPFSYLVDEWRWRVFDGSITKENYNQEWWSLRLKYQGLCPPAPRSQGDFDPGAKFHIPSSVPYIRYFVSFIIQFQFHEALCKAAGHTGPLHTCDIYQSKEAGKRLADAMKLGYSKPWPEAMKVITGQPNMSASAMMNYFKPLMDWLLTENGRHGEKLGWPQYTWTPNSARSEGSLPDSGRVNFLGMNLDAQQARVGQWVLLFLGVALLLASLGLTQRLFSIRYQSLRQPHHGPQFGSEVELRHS
Test: ACE-inhibitory activity, fluorescence assay with Abz-Gly-Phe(NO2)-Pro
Type: biochemical
Conditions: highest peptide concentration analyzed 1000 µM; read-out: ACE Inhibitory Activity (IC50-µM), symbol
Experimental: ACE (1 U/mL) was diluted (0.04 U/mL) in 150 mM Tris buffer containing 0.1 μM ZnCl2 (pH 8.3). Forty microliters of sample (or MilliQ water for blank and control) were added to a black multi-well plate (Porvair, Leatherhead, UK). […] The plate was incubated at 37 °C for 30 min, and the fluorescence was measured in a FLUOstar OPTIMA plate reader (BMG Labtechnologies GmbH, Offenburg, Germany) with 320 nm excitation and 420 nm emission filters.
Where no end group is shown, it is not given here.
Provide the reported IC50 of each item.

Challenge: Using the record for RYLGYLE [RYLGYLE] , state its measured IC50.
Response given: > 1000 µM

Challenge: Using the record for YPVEPF [YPVEPF] , state its measured IC50.
Response given: > 1000 µM

Data origin, for the record: paper PMC7466261
